Catalogue of IC50 values
# target: UniProt:P21397
# Sequence (P21397 whole entry): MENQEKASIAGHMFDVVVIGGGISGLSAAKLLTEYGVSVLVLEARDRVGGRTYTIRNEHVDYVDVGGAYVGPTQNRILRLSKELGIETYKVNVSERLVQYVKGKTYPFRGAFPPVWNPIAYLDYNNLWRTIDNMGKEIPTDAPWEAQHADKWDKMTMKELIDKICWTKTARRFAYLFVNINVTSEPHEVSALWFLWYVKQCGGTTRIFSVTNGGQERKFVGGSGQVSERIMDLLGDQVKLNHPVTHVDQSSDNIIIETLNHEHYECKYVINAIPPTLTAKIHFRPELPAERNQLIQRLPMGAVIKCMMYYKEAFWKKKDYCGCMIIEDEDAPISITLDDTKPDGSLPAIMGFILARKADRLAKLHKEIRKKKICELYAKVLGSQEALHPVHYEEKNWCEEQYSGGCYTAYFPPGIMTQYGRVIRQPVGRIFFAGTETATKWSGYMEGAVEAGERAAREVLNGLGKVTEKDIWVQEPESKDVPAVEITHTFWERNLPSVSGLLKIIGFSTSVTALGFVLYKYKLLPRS
# protocol.summary: Inhibition of recombinant human MAO-A using kynuramine as substrate by fluorescence spectrophotometry
Field format: number, assumed µM, no unit text.

Solved entries:
O=[N+]([O-])/C=C/c1cccc(OCc2cccc(C(F)(F)F)c2)c1    8.78
O=[N+]([O-])/C=C/c1cccc(OCc2cccc(F)c2)c1    4.2
O=[N+]([O-])/C=C/c1cccc(OCc2ccccc2)c1    3.65
O=[N+]([O-])/C=C/c1cccc(OCc2ccc(F)cc2)c1    6.46
O=[N+]([O-])/C=C/c1cccc(OCc2ccc(Cl)cc2)c1    7.59

Enquiry: Record request: IC50 value, item `Cc1cccc(COc2cccc(/C=C/[N+](=O)[O-])c2)c1`
Return: 11.8

Enquiry: Record request: IC50 value, item `O=[N+]([O-])/C=C/c1cccc(OCc2cccc(Cl)c2)c1`
Return: 3.52
